The following compounds are listed with their measured melting point values.

COMPOUND: CC(C)Oc1cc(Oc2ccc(S(C)(=O)=O)cn2)cc2cc(C3=NCC(CC(C)(C)O)S3)[nH]c12 (single isomer, unassigned) [Example 64]
melting point: 145 to 146 °C
//
COMPOUND: COc1cc(Oc2ccc(S(C)(=O)=O)cc2)cc2cc(C3=NCC(CC(N)=O)S3)[nH]c12 (stereo not shown)
melting point: 169 to 170 °C
//
COMPOUND: COc1cc(Oc2ccc(S(C)(=O)=O)nc2)cc2cc(C3=NCC(CC(=O)NC[C@H](C)O)S3)[nH]c12 (stereo partly shown)
melting point: 185 to 186 °C
//
COMPOUND: CC(CO)Oc1cc(Oc2ccc(S(C)(=O)=O)cc2)cc2cc(C3=NCC(CC(N)=O)S3)[nH]c12 (stereo not shown)
melting point: 137 to 142 °C
//
COMPOUND: CNC(=O)CC1CN=C(c2cc3cc(Oc4ccc(S(C)(=O)=O)nc4)cc(OC)c3[nH]2)S1 (single isomer, unassigned) [Example 31]
melting point: 196 to 197 °C
//
COMPOUND: CCNC(=O)CC1CN=C(c2cc3cc(Oc4ccc(COC)nc4)cc(OC)c3[nH]2)S1 (stereo not shown)
melting point: 130 to 132 °C
//
COMPOUND: CNC(=O)CC1CN=C(c2cc3cc(Oc4ccc(S(C)(=O)=O)nc4)cc(OC)c3[nH]2)S1 (single isomer, unassigned) [Example 32]
melting point: 195 to 197 °C

---

PROPERTY LABEL: melting point

MOLECULE: CNC(=O)CC1CN=C(c2cc3cc(Oc4ccc(S(C)(=O)=O)cn4)cc(OC(COC)COC)c3[nH]2)S1 (stereo not shown)
READING: 123 to 125 °C
--
MOLECULE: CNC(=O)CC1CN=C(c2cc3cc(Oc4ccc(COC)nc4)cc(OC)c3[nH]2)S1 (stereo not shown)
READING: 102 to 104 °C
--
MOLECULE: COCc1ccc(Oc2cc(OC(C)C)c3[nH]c(C4=NCC(CC(=O)NC5CC5)S4)cc3c2)cn1 (stereo not shown)
READING: 100 to 101 °C
--
MOLECULE: COc1cc(Oc2ccc(S(C)(=O)=O)nc2)cc2cc(C3=NCC(CC(N)=O)S3)[nH]c12 (stereo not shown)
READING: 225 to 227 °C
--
MOLECULE: CS(=O)(=O)c1ccc(Oc2cc(OCc3ccccc3)c3[nH]c(-c4nnc(CO)s4)cc3c2)cc1
READING: 159 to 160 °C
--
MOLECULE: CCOc1cc(Oc2ccc(S(C)(=O)=O)nc2)cc2cc(C3=NCC(CC(N)=O)S3)[nH]c12 (stereo not shown)
READING: 195 to 196 °C
--
MOLECULE: COc1cc(Oc2ccc(S(C)(=O)=O)nc2)cc2cc(C3=NCC(CC(=O)NC4CC4)S3)[nH]c12 (stereo not shown)
READING: 248 to 249 °C

---

# MEASURED ON: human liver GK (GST-hLGK1) (Homo sapiens)
# Construct: with a BamHI site added to immediately before the initiation codon
# Sequence (P35557 1-464 isoform P35557-3): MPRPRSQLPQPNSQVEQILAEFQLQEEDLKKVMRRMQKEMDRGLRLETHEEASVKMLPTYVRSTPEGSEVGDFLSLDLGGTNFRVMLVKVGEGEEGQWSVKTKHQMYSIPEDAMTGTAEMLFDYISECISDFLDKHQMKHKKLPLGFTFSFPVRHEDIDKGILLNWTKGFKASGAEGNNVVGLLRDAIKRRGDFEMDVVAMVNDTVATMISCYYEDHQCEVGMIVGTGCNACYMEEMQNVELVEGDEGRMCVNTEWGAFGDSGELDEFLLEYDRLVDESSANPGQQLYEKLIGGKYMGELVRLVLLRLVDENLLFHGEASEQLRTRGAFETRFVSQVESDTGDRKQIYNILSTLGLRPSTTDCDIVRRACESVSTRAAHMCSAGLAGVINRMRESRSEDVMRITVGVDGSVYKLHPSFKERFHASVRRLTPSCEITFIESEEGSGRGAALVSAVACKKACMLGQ
# ASSAY: Measurement of GK activation value
# MEASUREMENT CONTEXT: GST-hLGK1 6 μg/mL, 5 mmol/L D-glucose, 50 μmol/L Mant-ATP, 60 min at 37° C.; concentration at midpoint between maximum activity value and control activity value
Returns: string. Value is 1 if measured EC50 is below 40 nM, and 0 if it is greater than or equal to it.

MOLECULE: COc1cc(Oc2ccc(S(C)(=O)=O)nc2)cc2cc(C3=NCC(CC(=O)NCC(C)(C)O)S3)[nH]c12 (single isomer, unassigned) [Example 74]
CLASSIFICATION: 1
//
MOLECULE: Cn1ccnc1COc1cc(Oc2ccc(S(C)(=O)=O)cc2)cc2cc(C3=NCC(CC(N)=O)S3)[nH]c12 (stereo not drawn) [Example 11]
CLASSIFICATION: 0
//
MOLECULE: COCC(C)Oc1cc(Oc2ccc(S(C)(=O)=O)cc2)cc2cc(C3=NCC(CCO)S3)[nH]c12 (single isomer, unassigned) [Example 58]
CLASSIFICATION: 1
//
MOLECULE: COc1cc(Oc2ccc(S(C)(=O)=O)nc2)cc2cc(C3=NCC(CC(=O)N(C)C)S3)[nH]c12 (stereo not drawn) [Example 79]
CLASSIFICATION: 1
//
MOLECULE: CNC(=O)CC1CN=C(c2cc3cc(Oc4ccc(S(C)(=O)=O)nc4)cc(OC)c3[nH]2)S1 (single isomer, unassigned) [Example 31]
CLASSIFICATION: 1
//
MOLECULE: COCCNC(=O)CC1CN=C(c2cc3cc(Oc4ccc(S(C)(=O)=O)nc4)cc(OC)c3[nH]2)S1 (stereo not drawn) [Example 78]
CLASSIFICATION: 1

---

The following compounds are listed with their measured pEC50 values.
# MEASURED ON: human liver GK (GST-hLGK1) (Homo sapiens)
# Construct: with a BamHI site added to immediately before the initiation codon
# ASSAY: Measurement of GK activation value
# MEASUREMENT CONTEXT: GST-hLGK1 6 μg/mL, 5 mmol/L D-glucose, 50 μmol/L Mant-ATP, 60 min at 37° C.; concentration at midpoint between maximum activity value and control activity value
pEC50: −log10 of the molar value.
PROPERTY LABEL: pEC50

COMPOUND: CS(=O)(=O)c1ccc(Oc2cc(OCC3CCOCC3)c3[nH]c(C4=NCC(CCO)S4)cc3c2)cc1 (stereo not shown) [Example 19]
PROPERTY LABEL: pEC50
READING: 7.36
//
COMPOUND: COCC(C)Oc1cc(Oc2ccc(S(C)(=O)=O)cc2)cc2cc(C3=NCC(CCO)S3)[nH]c12 (single isomer, unassigned) [Example 57]
PROPERTY LABEL: pEC50
READING: 7.77
//
COMPOUND: CS(=O)(=O)c1ccc(Oc2cc(OCc3ccccc3)c3[nH]c(C4=NCC(CC(=O)O)S4)cc3c2)cc1 (stereo not shown) [Example 3]
PROPERTY LABEL: pEC50
READING: 7.26
//
COMPOUND: COc1cc(Oc2ccc(S(C)(=O)=O)nc2)cc2cc(C3=NCC(CC(=O)NC[C@H](C)O)S3)[nH]c12 (stereo partly shown) [Example 80]
PROPERTY LABEL: pEC50
READING: 7.43

---

PROPERTY LABEL: melting point

MOLECULE: Cn1ccnc1COc1cc(Oc2ccc(S(C)(=O)=O)cc2)cc2cc(C3=NCC(CC(N)=O)S3)[nH]c12 (centres unmarked) [Example 11]
PROPERTY LABEL: melting point
READING: 130 to 131 °C
--
MOLECULE: CCOc1cc(Oc2ccc(S(C)(=O)=O)nc2)cc2cc(C3=NCC(CC(=O)O)S3)[nH]c12 (centres unmarked) [Example 96]
PROPERTY LABEL: melting point
READING: 208 to 210 °C
--
MOLECULE: COc1cc(Oc2ccc(S(C)(=O)=O)nc2)cc2cc(C3=NCC(CC(=O)NCC(C)(C)O)S3)[nH]c12 (single isomer, unassigned) [Example 74]
PROPERTY LABEL: melting point
READING: 173 to 174 °C
--
MOLECULE: COCC(COC)Oc1cc(Oc2ccc(S(C)(=O)=O)nc2)cc2cc(C3=NCC(CCO)S3)[nH]c12 (centres unmarked) [Example 37]
PROPERTY LABEL: melting point
READING: 69 to 71 °C
--
MOLECULE: CNC(=O)CC1CN=C(c2cc3cc(Oc4ccc(S(C)(=O)=O)cn4)cc(OC)c3[nH]2)S1 (centres unmarked) [Example 42]
PROPERTY LABEL: melting point
READING: 207 to 209 °C
--
MOLECULE: COCC(C)Oc1cc(Oc2ccc(S(C)(=O)=O)nc2)cc2cc(C3=NCC(CC(N)=O)S3)[nH]c12 (centres unmarked) [Example 86]
PROPERTY LABEL: melting point
READING: 131 to 132 °C
--
MOLECULE: COCCNC(=O)CC1CN=C(c2cc3cc(Oc4ccc(S(C)(=O)=O)nc4)cc(OC)c3[nH]2)S1 (centres unmarked) [Example 78]
PROPERTY LABEL: melting point
READING: 175 to 176 °C
--
MOLECULE: CCNC(=O)CC1CN=C(c2cc3cc(Oc4ccc(S(C)(=O)=O)nc4)cc(OC)c3[nH]2)S1 (centres unmarked) [Example 77]
PROPERTY LABEL: melting point
READING: 236 to 237 °C
